Below, each entry is listed alongside its reported IC50.
target: CFTR channel in human colonic T84 cells (Homo sapiens, UniProt P13569); construct: results in the phosphorylation and opening of CFTR anion channels; host or cells: human colonic T84 cells; experiment: T84 assay (FLIPR membrane potential dye, forskolin/IBMX-stimulated CFTR); format: cell-based; conditions: average of at least 2 runs unless annotated n = 1
Sequence (P13569 whole entry): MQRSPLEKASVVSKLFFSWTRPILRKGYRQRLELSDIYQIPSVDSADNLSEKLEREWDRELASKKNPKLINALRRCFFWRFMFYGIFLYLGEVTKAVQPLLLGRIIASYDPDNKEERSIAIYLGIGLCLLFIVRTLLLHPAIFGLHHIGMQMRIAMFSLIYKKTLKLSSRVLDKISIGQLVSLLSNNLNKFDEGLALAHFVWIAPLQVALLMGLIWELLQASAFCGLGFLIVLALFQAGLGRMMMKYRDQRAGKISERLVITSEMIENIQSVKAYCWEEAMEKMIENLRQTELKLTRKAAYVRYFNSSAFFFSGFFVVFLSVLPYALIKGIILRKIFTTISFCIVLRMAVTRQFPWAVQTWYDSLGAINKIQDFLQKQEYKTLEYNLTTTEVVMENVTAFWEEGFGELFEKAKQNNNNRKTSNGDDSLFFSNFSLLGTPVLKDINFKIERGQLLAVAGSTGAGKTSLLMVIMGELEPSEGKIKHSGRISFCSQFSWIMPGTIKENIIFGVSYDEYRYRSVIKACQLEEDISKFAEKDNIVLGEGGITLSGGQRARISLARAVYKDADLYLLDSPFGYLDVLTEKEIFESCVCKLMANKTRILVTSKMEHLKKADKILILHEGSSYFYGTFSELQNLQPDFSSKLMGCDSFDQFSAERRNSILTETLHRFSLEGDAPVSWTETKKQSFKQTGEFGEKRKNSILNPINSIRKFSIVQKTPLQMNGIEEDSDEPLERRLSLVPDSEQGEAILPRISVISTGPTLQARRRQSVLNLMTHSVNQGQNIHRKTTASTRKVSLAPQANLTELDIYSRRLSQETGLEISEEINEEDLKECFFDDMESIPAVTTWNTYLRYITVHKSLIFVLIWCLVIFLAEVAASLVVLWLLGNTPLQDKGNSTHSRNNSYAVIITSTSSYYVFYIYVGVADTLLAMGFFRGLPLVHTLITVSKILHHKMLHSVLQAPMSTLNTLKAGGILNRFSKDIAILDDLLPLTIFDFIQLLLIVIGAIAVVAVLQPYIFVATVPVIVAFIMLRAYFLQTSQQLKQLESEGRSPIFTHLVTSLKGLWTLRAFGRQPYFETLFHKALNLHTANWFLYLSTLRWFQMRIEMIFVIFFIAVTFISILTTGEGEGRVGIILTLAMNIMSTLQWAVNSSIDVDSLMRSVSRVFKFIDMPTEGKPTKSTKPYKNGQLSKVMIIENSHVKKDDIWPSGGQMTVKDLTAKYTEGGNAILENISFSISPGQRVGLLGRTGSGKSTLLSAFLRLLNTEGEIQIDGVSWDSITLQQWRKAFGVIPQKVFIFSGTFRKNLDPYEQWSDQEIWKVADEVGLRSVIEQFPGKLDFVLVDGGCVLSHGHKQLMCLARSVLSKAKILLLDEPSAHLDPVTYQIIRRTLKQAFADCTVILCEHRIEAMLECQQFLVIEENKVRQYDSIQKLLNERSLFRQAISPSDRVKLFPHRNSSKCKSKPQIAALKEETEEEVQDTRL
observation_type: IC50 (µM)

> print(dat)
                            chemical.smiles                             target.system  readout.number
1  Oc1c(Cl)cc(-c2cnc(OCc3ccc(CN4CCN(CCc5ccccc5)CC4)cc3)nn2)cc1Cl  CFTR channel in human colonic T84 cells (Homo sapiens, UniProt P13569)            8.88
2  CN(Cc1ccc(COc2ncc(-c3cc(Cl)c(O)c(Cl)c3)nn2)cc1)Cc1ccc2ncccc2c1  CFTR channel in human colonic T84 cells (Homo sapiens, UniProt P13569)            4.72
3  Oc1c(Br)cc(-c2cnc(OCc3cccc(Cl)c3)nn2)cc1Br  CFTR channel in human colonic T84 cells (Homo sapiens, UniProt P13569)            0.72
